Where do the numbers come from? From patent US20260193264A1.

biological target: HiBiT-BRM fusion protein in stable HeLa cell line (Homo sapiens, UniProt P51531); construct: expressed in transfected cells; test: HiBiT-BRM cell-based degradation assay (Nano-Glo HiBiT Lytic Detection, 24 h); set-up: scale not given here; settings: HeLa HiBiT-BRM cells, read-out: BRM HiBit Degradation IC50
Sequence (P51531 whole entry, the tested form may be a part): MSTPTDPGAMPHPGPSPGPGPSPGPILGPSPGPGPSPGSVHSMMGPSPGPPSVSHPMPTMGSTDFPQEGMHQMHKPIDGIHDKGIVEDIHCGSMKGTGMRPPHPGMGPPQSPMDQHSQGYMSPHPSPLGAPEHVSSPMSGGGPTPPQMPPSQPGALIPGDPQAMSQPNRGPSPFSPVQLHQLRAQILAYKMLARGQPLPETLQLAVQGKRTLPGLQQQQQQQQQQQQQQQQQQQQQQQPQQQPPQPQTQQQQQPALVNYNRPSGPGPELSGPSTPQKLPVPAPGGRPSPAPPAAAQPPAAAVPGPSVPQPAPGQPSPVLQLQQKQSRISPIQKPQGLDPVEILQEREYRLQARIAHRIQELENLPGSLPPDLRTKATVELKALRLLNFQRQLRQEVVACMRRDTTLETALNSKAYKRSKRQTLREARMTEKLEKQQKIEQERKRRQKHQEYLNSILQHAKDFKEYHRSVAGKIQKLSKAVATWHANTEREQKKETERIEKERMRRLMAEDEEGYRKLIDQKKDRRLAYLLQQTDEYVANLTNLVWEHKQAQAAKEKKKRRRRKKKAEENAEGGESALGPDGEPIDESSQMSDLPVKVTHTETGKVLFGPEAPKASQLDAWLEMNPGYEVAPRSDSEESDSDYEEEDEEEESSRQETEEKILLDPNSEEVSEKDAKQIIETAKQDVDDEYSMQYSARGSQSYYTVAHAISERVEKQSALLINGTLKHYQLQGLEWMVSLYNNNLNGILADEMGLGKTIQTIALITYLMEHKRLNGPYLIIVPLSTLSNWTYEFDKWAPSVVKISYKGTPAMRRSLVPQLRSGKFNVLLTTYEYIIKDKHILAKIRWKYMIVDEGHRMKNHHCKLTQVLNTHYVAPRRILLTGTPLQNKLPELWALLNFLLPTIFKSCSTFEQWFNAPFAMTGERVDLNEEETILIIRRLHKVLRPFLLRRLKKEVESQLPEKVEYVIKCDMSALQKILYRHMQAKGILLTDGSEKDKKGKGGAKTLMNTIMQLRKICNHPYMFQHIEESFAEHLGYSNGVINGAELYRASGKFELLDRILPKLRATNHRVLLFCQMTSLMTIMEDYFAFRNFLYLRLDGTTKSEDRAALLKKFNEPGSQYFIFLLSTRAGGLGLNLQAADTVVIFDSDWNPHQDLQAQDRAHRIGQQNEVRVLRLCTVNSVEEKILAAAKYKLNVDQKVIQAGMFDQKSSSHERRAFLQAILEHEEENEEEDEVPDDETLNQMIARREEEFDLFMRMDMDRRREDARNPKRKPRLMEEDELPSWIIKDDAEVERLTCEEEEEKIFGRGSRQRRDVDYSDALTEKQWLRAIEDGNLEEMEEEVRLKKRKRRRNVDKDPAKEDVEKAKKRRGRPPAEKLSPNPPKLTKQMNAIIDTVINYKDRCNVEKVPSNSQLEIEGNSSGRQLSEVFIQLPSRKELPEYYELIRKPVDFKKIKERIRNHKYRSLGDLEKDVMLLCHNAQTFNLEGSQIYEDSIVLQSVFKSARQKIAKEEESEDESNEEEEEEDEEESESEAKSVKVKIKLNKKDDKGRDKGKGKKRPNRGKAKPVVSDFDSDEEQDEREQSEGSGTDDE

compound	DC50
COC[C@H]1CN(c2cc([C@H](C(=O)N3C[C@H](O)C[C@H]3C(=O)N[C@@H](C)c3ccc(-c4scnc4C)cc3)C(C)C)on2)CCN1c1ccc2nnc(-c3ccccc3O)cc2c1 [Compound 138]	< 10 nM
Cc1ncsc1-c1ccc([C@H](C)NC(=O)[C@@H]2C[C@@H](O)CN2C(=O)[C@H](c2cc(N3CCC4(CC3)CC(c3ccc5cc(-c6ccccc6O)nnc5c3)C4)no2)C(C)C)cc1 [Compound 25]	> 100 nM
CC(C)[C@@H](C(=O)N1C[C@H](O)C[C@H]1C(=O)N[C@@H](C)c1ccccc1)c1cc(N2CC3(CN(c4ccc5cc(-c6ccccc6O)nnc5c4)C3)C2)no1 [Compound 85]	< 10 nM
Cc1ncsc1-c1ccc([C@H](C)NC(=O)[C@@H]2C[C@@H](O)CN2C(=O)C(c2cc(-c3cnc(N4CCC5(CC4)CC(c4ccc6cc(-c7ccccc7O)nnc6c4)C5)nc3)no2)C(C)C)cc1 (mixture of isomers) [Compound 65]	< 10 nM
Cc1ncsc1-c1ccc([C@H](C)NC(=O)[C@@H]2C[C@@H](O)CN2C(=O)[C@@H](c2cc(N3CCC(C(=O)N4CC(c5ccc6cc(-c7ccccc7O)nnc6c5)C4)CC3)no2)C(C)C)cc1 [Compound 45]	< 10 nM
